test: folding enthalpy; higher = less favourable; fluorescence melt of hairpins on a sequencing array, two-state fit; conditions: sodium 0.088 M
QUANTITY MEASURED: folding enthalpy (kcal/mol)
Express it in kcal/mol; write the number only.

| SEQ | UNIT SPEC | folding enthalpy |
| --- | --- | --- |
| GCCCAGCGAAAGCGTGGC (((..((....))..))) | kcal/mol | -23 |
| GCAGCGGGAAACCGTTGC (((.(((....))).))) | kcal/mol | -39.4 |
| GTCGGCGGAAACACCGAC (((((.(....).))))) | kcal/mol | -37.9 |
| GTTGACGAAAGTCGCAAC ((((((....)))..))) | kcal/mol | -13.3 |
| GAGCGACGAAAGTCACTC (((.(((....))).))) | kcal/mol | -25.9 |
| GGATCCGAAAGGAGGTCC ((((((....)))..))) | kcal/mol | -14.9 |

Name the reported folding enthalpy value associated with the sequence GTTGTCGAAAGACTAAAC ((((((....)))..))) -13.6

Name the reported folding enthalpy value associated with the sequence GCTATGGCGAAAGCCAGC (((..(((....)))))) -11.2

Name the reported folding enthalpy value associated with the sequence GGAGAGGGAAACCTCTCC (((((((....))))))) -46.6

---

test: folding enthalpy; higher = less favourable; fluorescence melt of hairpins on a sequencing array, two-state fit; details: sodium 0.088 M
QUANTITY MEASURED: folding enthalpy (kcal/mol)
Express it in kcal/mol; write the number only.

Examples from the recorded data:
| SEQ | folding enthalpy, kcal/mol |
| --- | --- |
| GGCAAAGGAAACTTTACC ((.((((....)))).)) | -27.4 |
| GCTACGCGAAAGCCTTGC ((.(.((....)).).)) | -9.85 |
| GTTAAGTCGAAAGACAAC (((..(((....)))))) | -13.4 |
| CGTCCGGAAACGGTGACG ((((((....)))..))) | -21.9 |
| GGCGCGGGAAACCGCACC ((.((((....)))).)) | -22.4 |
| GCCACCGAAAGGTTAGGC ((((((....)))..))) | -25.5 |
| GGTACGCGAAAGCGACC (((.(((....)))))) | -14.9 |
| GTAGCCGAAAGGCTTAC ((((((....))).))) | -10.3 |

Name the reported folding enthalpy value associated with the sequence GGTGACCGAAAGGTGACC (((.(((....))).))) -42.5

Name the reported folding enthalpy value associated with the sequence GCACTAACGAAAGTTTGC (((..(((....)))))) -15

Name the reported folding enthalpy value associated with the sequence GGTCCCCGAAAGGGTACC (((.(((....))).))) -24.1

Name the reported folding enthalpy value associated with the sequence GAGTCCGCGAAAGCGCTC (((..(((....)))))) -7.6

---

assay: melting temperature; fluorescence melt of hairpins on a sequencing array, two-state fit, raised by 9.35 °C to match UV melts; conditions: sodium 0.088 M
QUANTITY MEASURED: Tm

Examples from the recorded data:
| SEQ | RESULT |
| --- | --- |
| GTTGCGCCGAAAGGCAAC (((..(((....)))))) | 42.4 °C |
| GATCTACTCGTAGATC ((((((....)))))) | 53.8 °C |

Name the reported Tm value associated with the sequence GGTTACGAAAGTAACC ((((((....)))))) 67.5 °C

Name the reported Tm value associated with the sequence GATCGACCGTCGATC ((((((...)))))) 49 °C
